Data credit: ChEMBL document CHEMBL4020754

# Tested on: Bacillus subtilis
# assay remarks: Antibacterial activity against Bacillus subtilis ATCC 11774 measured after 24 hrs
# Type: functional
# test settings: ATCC 11774, 24 h
readout: IC50 (µg/mL)

A: CCCCCc1c(O)cc(CCCC)oc1=O
B: CCCCc1c(O)cc(CCC)oc1=O
C: CCCCCCCc1cc(O)c(CCCCCC)c(=O)o1 [PSEUDOPYRONINES B]
Arrange by IC50, high to low. Answer by listing the labels in the order asked for.
B, A, C

* * *

# Test system: Bacillus subtilis
# assay remarks: Antibacterial activity against Bacillus subtilis ATCC 11774 measured after 24 hrs
# Format: functional
# test settings: ATCC 11774, 24 h
readout: IC50 (µg/mL)

Here is how some compounds turned out for IC50.
record_smiles=CCCCCCC(=O)c1c(O)cc(CCCCCC)oc1=O result_number=3.5
record_smiles=CCCc1c(O)cc(CC)oc1=O result_number=203
record_smiles=CCCC(=O)c1c(O)cc(CCC)oc1=O result_number=1000
record_smiles=CCCCC(=O)c1c(O)cc(CCCC)oc1=O result_number=227

a: CCCCCCCCc1c(O)cc(CCCCCCC)oc1=O
b: CCCCCCCc1c(O)cc(CCCCCC)oc1=O
Compare the recorded IC50 of a and b ; state which is larger. Write down the label of the entry you select.
a
(a: 24 µg/mL, b: 0.7 µg/mL)

1: CCCCCC(=O)c1c(O)cc(CCCCC)oc1=O
2: CCCCCCc1c(O)cc(CCCCC)oc1=O
Compare the recorded IC50 of 1 and 2 ; state which is larger. Write down the label of the entry you select.
1
(1: 21 µg/mL, 2: 3.3 µg/mL)

* * *

# Tested on: Bacillus subtilis
# assay remarks: Antibacterial activity against Bacillus subtilis ATCC 11774 measured after 24 hrs
# Format: functional
# test settings: ATCC 11774, 24 h
readout: IC50

Here is how some molecules turned out for IC50.
record_smiles=CCCCCCCCC(=O)c1c(O)cc(CCCCCCCC)oc1=O readout=IC50 result="> 1000 µg/mL"
record_smiles=CCCCCCCC(=O)c1c(O)cc(CCCCCCC)oc1=O readout=IC50 result="27 µg/mL"
record_smiles=CCC(=O)c1c(O)cc(CC)oc1=O readout=IC50 result="> 1000 µg/mL"
record_smiles=CCc1c(O)cc(C)oc1=O readout=IC50 result="> 1000 µg/mL"

The value of IC50 measured for the molecule "CCCCCCCCCc1c(O)cc(CCCCCCCC)oc1=O" turned out to be > 1000 µg/mL
